Field: EC50. Provide a value for each of the compounds that follow.
# Test system: RSV A2 strain
# method: In vitro CPE (CytoPathic Effect) inhibition effect evaluation test, RSV type A
# Assay type: cell-based
# study_conditions: human respiratory syncytial virus; inhibitory effect against RSV type A (RSV A2 strain), HEp-2 cells, CPE inhibition; read-out: EC50

*Q* Given O=C(NC1(C(=O)O)C2CC3CC(C2)CC1C3)c1cnc(-c2cn(-c3ccccn3)c3cc(OC4CCN(c5ncc(F)cn5)CC4)ccc23)nc1C(F)(F)F (centres unmarked) [Compound I-447] , respond with its EC50.
*A* < 0.01 µM

*Q* Answer with the recorded EC50 of O=C(NC1(C(=O)O)C2CC3CC(C2)CC1C3)c1ccc(N2CCc3cc(OCCC4CCOCC4)cnc32)cc1C(F)(F)F (centres unmarked) [Compound I-125] only.
*A* 0.01 to 0.1 µM

*Q* Hello, please tell me recorded EC50 for this one: COC(=O)N1CCC(NC(=O)c2cnc(N3CC4(CCOCC4)c4cc(OC5CCN(c6ncccn6)CC5)ccc43)nc2C(F)(F)F)(C(=O)O)CC1 [Compound I-145]
*A* 0.01 to 0.1 µM

*Q* State its EC50 for this compound: O=C(NC1(C(=O)O)C2CC3CC(C2)CC1C3)c1cnc(N2CC(C3CCCC3)c3cc(OC4CCN(CC(F)(F)F)CC4)ccc32)nc1C(F)(F)F (racemic) [Compound I-487]
*A* < 0.01 µM

*Q* Supply EC50 value. Item: C/C(=N\OC1CC(F)(F)C1)c1ccc2c(c1)C1(CCCCC1)CN2c1ncc(C(=O)NC2(C(=O)O)C3CC4CC(C3)CC2C4)c(C(F)(F)F)n1 (single isomer, unassigned) [Compound I-477]
*A* 0.01 to 0.1 µM

The measured values listed here are drawn from patent US12528790B2.
